target: wild-type saDHFR (Staphylococcus aureus, UniProt P0A017)
Sequence (P0A017 whole entry): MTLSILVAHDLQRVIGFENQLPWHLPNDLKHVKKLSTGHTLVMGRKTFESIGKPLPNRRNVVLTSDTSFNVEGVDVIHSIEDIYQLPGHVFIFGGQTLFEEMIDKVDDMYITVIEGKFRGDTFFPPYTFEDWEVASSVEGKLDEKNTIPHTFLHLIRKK
RESULT_TYPE: IC50 (nM)
Output spec: scalar in nM, unitless text.

Query :: Give the observed IC50 of O=C(O)CCCN1C(=O)C(=C2C(=O)N(Cc3ccc(Cl)cc3)c3ccccc32)SC1=S [KBS1] for wild-type saDHFR (Staphylococcus aureus, UniProt P0A017).
Result :: 460

====

Measured Cell death induced in SH-SY5Y cells accompanies every entry in the list below.
test system: SH-SY5Y cells; assay: Mammalian cells growth/toxicity assay; assay type: cell-based, human; conditions: data not shown; 2 days

Below: 3 molecules and their reported Cell death induced in SH-SY5Y cells.
Query :: Enter recorded Cell death induced in SH-SY5Y cells with SH-SY5Y cells for O=C(O)CN1C(=O)C(=C2C(=O)N(Cc3ccccc3Cl)c3ccccc32)SC1=S here.
Result :: 35.4–52.1%

Query :: Lab note: SH-SY5Y cells assay, enter Cell death induced in SH-SY5Y cells for O=C(O)CCN1C(=O)C(=C2C(=O)N(Cc3ccc(F)cc3)c3ccccc32)SC1=S here
Result :: 35.4–52.1%

Query :: Name the recorded Cell death induced in SH-SY5Y cells of O=C(O)CN1C(=O)C(=C2C(=O)N(Cc3ccc(Cl)cc3)c3ccccc32)SC1=S , assay system SH-SY5Y cells.
Result :: 43.3%

Could you now consider this next molecule?
Query :: Provide the reported Cell death induced in SH-SY5Y cells (system: SH-SY5Y cells) for O=C(O)CCCN1C(=O)C(=C2C(=O)N(Cc3ccc(Cl)cc3)c3ccccc32)SC1=S
Result :: 35.4–52.1%
